The reported measurements were obtained from the RNAGym collection of RNA variant scans (doi:10.7554/elife.80360).

B1: CPEB3 Ribozyme (parent)
chain: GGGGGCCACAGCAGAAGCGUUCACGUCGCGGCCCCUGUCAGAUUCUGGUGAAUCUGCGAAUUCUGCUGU

Variants of: B1
Assay: self-cleavage, relative activity (ratio to wild type); higher = more cleavage; co-transcriptional
The reader will find reported self-cleavage values listed item by item below.
I'd appreciate a reply containing only the number, no unit.

> print(dat)
    variant.id  reading
 1    C7U U61A    0.805
 2   A13C G28C    0.149
 3   U21G G37C     0.18
 4    G4A C24U    0.352
 5   A16C G17A    0.144
 6   U44G U62C    0.842
 7   U21A U38C    0.373
 8   G19A G41A    0.153
 9   C18A A40G    0.176
10   G56U U69C     1.04

// moving on: another record for self-cleavage
query: # input variant: C7U A8G ; wanted: its self-cleavage
result: 0.918
